measurement_target: T1, EsCas13d, nuclease-dead (Eubacterium siraeum, UniProt B0MS50, R295A;H300A;R849A;H854A)
T1 sequence: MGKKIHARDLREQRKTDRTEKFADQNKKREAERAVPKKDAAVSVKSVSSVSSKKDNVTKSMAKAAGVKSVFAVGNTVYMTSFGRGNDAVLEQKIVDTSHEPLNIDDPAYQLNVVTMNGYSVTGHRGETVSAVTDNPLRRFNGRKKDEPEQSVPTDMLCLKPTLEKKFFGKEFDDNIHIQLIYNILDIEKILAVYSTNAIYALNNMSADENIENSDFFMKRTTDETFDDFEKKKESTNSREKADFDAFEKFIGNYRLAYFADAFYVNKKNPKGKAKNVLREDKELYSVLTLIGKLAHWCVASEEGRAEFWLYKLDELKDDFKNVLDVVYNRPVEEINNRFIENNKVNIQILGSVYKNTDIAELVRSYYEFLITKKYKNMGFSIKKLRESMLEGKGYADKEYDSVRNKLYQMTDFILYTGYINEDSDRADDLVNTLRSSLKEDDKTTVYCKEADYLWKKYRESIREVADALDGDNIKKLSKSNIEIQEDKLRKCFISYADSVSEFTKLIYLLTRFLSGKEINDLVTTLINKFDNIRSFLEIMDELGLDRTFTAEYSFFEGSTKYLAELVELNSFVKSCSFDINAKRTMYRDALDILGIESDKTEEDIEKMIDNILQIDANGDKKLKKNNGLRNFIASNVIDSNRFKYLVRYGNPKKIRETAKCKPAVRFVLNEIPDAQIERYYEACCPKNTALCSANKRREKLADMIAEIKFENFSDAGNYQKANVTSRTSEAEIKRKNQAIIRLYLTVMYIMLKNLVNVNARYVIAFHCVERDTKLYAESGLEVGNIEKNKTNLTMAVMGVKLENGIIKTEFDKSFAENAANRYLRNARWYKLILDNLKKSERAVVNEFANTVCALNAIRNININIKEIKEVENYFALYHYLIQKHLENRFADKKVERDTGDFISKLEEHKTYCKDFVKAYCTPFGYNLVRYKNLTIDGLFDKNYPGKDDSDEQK
assay_procedure: crRNA (strand 1, pre-loaded); Mg2+; 40 mM Tris-HCl pH 7.5, 150 mM NaCl, 6 mM MgCl2, 1 mM DTT, 0.1% Tween-20, 0.2 mg/ml BSA; 25 C; 10 min per concentration, then washed
condition_description: tags: His6-TwinStrep-SUMO cleaved; N-terminal SNAP kept (SNAP-Surface 488); label: 3' end held by stalled T7 RNA polymerase
recorded_endpoint: Kd (nM)
A number alone suffices; assume nM.

Field: example entries. Status: answers known.
binder	Kd, nM
target 1 A14C,G15U (mixed) RNA 1: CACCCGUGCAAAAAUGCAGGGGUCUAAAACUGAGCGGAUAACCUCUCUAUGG RNA 2: GGGAAUGGAUCCACAUCUACGAAUUCGUACCAUAGAUCGGUUAUCCGCUCACCGAGAUCGGAAGAGCACACGU	35
target 1 MT 5'PFS GCG 3'PFS CUA (mixed) RNA 1: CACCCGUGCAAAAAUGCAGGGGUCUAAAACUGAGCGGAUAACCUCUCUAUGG RNA 2: GGGAAUGGAUCCACAUCUACGAAUUCGCGCCAUAGAGAGGUUAUCCGCUCACUAAGAUCGGAAGAGCACACGU	15.7
target 2 MT 5'PFS UAC 3'PFS CAG (mixed) RNA 1: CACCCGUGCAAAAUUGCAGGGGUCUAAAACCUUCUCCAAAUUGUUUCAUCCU RNA 2: GGGAAUGGAUCCACAUCUACGAAUUCUACAGGAUGAAACAAUUUGGAGAAGCAGAGAUCGGAAGAGCACACGU	8.5

Consider now this further binder.
Q: Name the reported Kd value associated with the binder target 1 A1G,A9U (mixed) RNA 1: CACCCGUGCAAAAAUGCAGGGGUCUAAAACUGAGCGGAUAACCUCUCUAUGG RNA 2: GGGAAUGGAUCCACAUCUACGAAUUCGUACCAUAGAGAGGUUUUCCGCUCGCCGAGAUCGGAAGAGCACACGU
A: 8.1
